- Tested on: transplanted paddy-field rice
- measurement notes: Test Example 1: crop injury against transplanted paddy-field rice
- Assay type: in vivo
- condition details: chemical dosage 10 g/a; wettable powder applied 3 days after transplanting; judged after 25 days
The reader will find reported Crop injury against transplanted rice values listed item by item below.

- compound: "CCc1cc(I)cc(I)c1Oc1nnc(Cl)cc1O"
  Crop injury against transplanted rice: "0 (Growth inhibition rate; 0 to 10%)"
- compound: "Oc1cc(Cl)nnc1Oc1c(Cl)cccc1C1CC1"
  Crop injury against transplanted rice: "0 (Growth inhibition rate; 0 to 10%)"
- compound: "Cc1cccc(I)c1Oc1nnc(Cl)cc1O"
  Crop injury against transplanted rice: "2 (Growth inhibition rate; 31 to 50%)"
- compound: "Oc1cc(Cl)nnc1Oc1cccc2c1C1CC1C2 (centres unmarked)"
  Crop injury against transplanted rice: "0 (Growth inhibition rate; 0 to 10%)"
- compound: "Oc1cc(Cl)nnc1Oc1cccc2ccoc12"
  Crop injury against transplanted rice: "2 (Growth inhibition rate; 31 to 50%)"

The compound CC(C)(C)c1cccc(C2CC2)c1Oc1nnc(Cl)cc1O showed Crop injury against transplanted rice equal to 0 (Growth inhibition rate; 0 to 10%)

The compound CCc1cccc(C)c1Oc1nnc(Cl)cc1O showed Crop injury against transplanted rice equal to 0 (Growth inhibition rate; 0 to 10%)

The compound Oc1cc(Cl)nnc1Oc1cccc2c1CCC2 showed Crop injury against transplanted rice equal to 0 (Growth inhibition rate; 0 to 10%)

The compound Cc1cccc(Br)c1Oc1nnc(Cl)cc1O showed Crop injury against transplanted rice equal to 0 (Growth inhibition rate; 0 to 10%)

The compound Oc1cc(Cl)nnc1Oc1cc(F)ccc1C1CC1 showed Crop injury against transplanted rice equal to 0 (Growth inhibition rate; 0 to 10%)

The compound CC(C)c1cccc(I)c1Oc1nnc(Cl)cc1O showed Crop injury against transplanted rice equal to 0 (Growth inhibition rate; 0 to 10%)
